Reference source: ChEMBL document CHEMBL1201862

- System: HT-29
- assay-notes: NCI tumour cell line growth inhibition, 48 h
The source made the active and inactive calls. Rule as the data show it: active = GI50 up to about 1.1 µM and inactive = higher.
Thanks in advance; please answer with one of these: active, inactive

Short answer needed: outcome of this test for NC1=NC(=O)C(CC(=O)Nc2ccc([N+](=O)[O-])cc2[N+](=O)[O-])S1 (centres undefined) ?
inactive

For C=CCn1c(=O)c(C(=O)NC(=O)OCC)cn(C2CCCCC2)c1=O , what call appears in the results of this test?
inactive

Hi, do you know how CCCCn1c2ccccc2c2ccc3c(c21)C(=O)C=CC3=O came out in this test?
active

Answer briefly: the call reported for COc1ccc2nc(-c3ccccc3)c(=O)[nH]c2c1 in this assay.
inactive

Check the results log: what was the call for Cc1ccc(S(=O)(=O)NC(CCC(=O)NN)C(=O)NN)cc1 (centres undefined) ?
inactive

Just curious, what result did O=[N+]([O-])c1ccc(/C=C/c2ccc(/C=C/c3ccc([N+](=O)[O-])cc3[N+](=O)[O-])cc2)c([N+](=O)[O-])c1 get here?
inactive

Could you check what this test reported for C=C(C)C(=O)OC1C[C@H](COC(C)=O)C2CC=C(C)C2C2OC(=O)C(=C)[C@H]12 (some centres undefined) ?
inactive

Dear all, I need the recorded test outcome for NC1(C(=O)OCc2ccccc2)CCCC1 , thank you.
inactive

How was CS(=O)(=O)Nc1ccc(N2Cc3c[nH]c4ccc5nccc2c5c34)cc1 classified in this test?
inactive

Given c1ccc2[nH]c3nc4ccccc4c-3cc2c1 , state the outcome it received in this test.
active

// outcome(item) with item = CC[C@]12C=CCN3CC[C@@]4(c5ccc(OC)cc5N(C)[C@H]4[C@@](O)(C(=O)OC)[C@@H]1OC(C)=O)[C@@H]32
inactive

Per the records of this test, what outcome belongs to COc1ccccc1N/C(SCc1ccccc1)=C(/C(Cl)=C(Cl)Cl)[N+](=O)[O-] ?
inactive

Outcome logged for CC(=O)C1COC(O)C1C (centres undefined) in this assay:
inactive

For COC(=O)[C@H]1[C@H](OC(=O)[C@@H](OC)c2ccccc2)ON2CC[C@@H](OC(=O)c3ccccc3)[C@H]12 , which call appears in the assay record?
inactive

Test call for this molecule, please: [O-][n+]1onc2c3nn(-c4ccccc4)nc3ccc21
inactive

Which outcome was assigned to CN(C)c1cccc(-c2cc(=S)c3cc4c(cc3[nH]2)OCO4)c1 in this test?
inactive

Recorded call for COc1cccc2c1N[S@](=O)S2 ?
inactive

Answer briefly: the call reported for CCCCCCCCCCCCCCCCNc1nc(=O)n(C2CC(O)C(CO)O2)cc1F (centres undefined) in this assay.
inactive

Give the logged outcome of this assay for the following molecule: COc1ccc(CNc2nc(NCc3ccc(OC)cc3)nc(NC(C)C)n2)cc1
inactive

---

- Test system: EKVX
- assay-notes: NCI tumour cell line growth inhibition, 48 h
Activity calls are given as the source filed them. Cut-off read from the data, not from the text of the source: active = GI50 up to about 1.1 µM and inactive = higher.
Bench note: report the call from 1 (yes) for active, 0 (no) for inactive

Name the outcome recorded for C#CC(=O)OCC#CCOC(=O)C#C in the assay.
0 (no)

Recorded test outcome, item CC1(C)COC(c2cccc(C3=NC(C)(C)CO3)c2)=N1
0 (no)

Fill in: this test's call for COC1CC(OS(=O)(=O)c2ccc(C)cc2)C(OS(=O)(=O)c2ccc(C)cc2)C(COS(=O)(=O)c2ccc(C)cc2)O1 (stereo unspecified) is ___
0 (no)

For O=C(C=P(c1ccccc1)(c1ccccc1)c1ccccc1)C12CC3CC(CC(C3)C1)C2 , what call appears in the results of this test?
0 (no)

Lab log entry: CC/C(Cl)=N\OC(=O)Nc1ccc(F)c(Cl)c1 — outcome as called in the assay?
0 (no)

What did this assay record as the result for COc1ccc2c(c1)[C@@]13CCN4CC5=CCO[C@H]6CC(=O)N2[C@H]1[C@H]6[C@H]5C[C@H]43 ?
0 (no)

Outcome? CSC(=S)c1ccc(C(=S)SC)cc1
0 (no)

I would be grateful if you could indicate the recorded call for O=c1[nH]nc(Cc2ccccc2)n1N=C1CCCCC1 .
1 (yes)

Name the outcome recorded for CCN(CC)CC(C)C(=O)/C=C/c1ccc(C)cc1 (stereo unspecified) in the assay.
0 (no)

Check the results log: what was the call for Cn1c2ccccc2c(=S)c2ccccc21 ?
0 (no)

Assay outcome for COC(=O)C(=O)C(CC(=O)Nc1cccc(C(F)(F)F)c1)C(=O)OC (stereo unspecified) : what was it?
0 (no)

In this assay, the call recorded for C1CNCCNCCNCCN1 was what?
0 (no)

Called result for CN1N=C(c2ccncc2)OC1c1ccc(Cl)c(Cl)c1 (stereo unspecified)
0 (no)

Hello, I am checking results. What call was entered for COc1cc2c(c3c1C=CCO3)C(=O)c1ccccc1C2=O ?
0 (no)

Please share the test call associated with Cn1c(=O)c2c(nc3n(Cc4ccccc4)c(=O)c(NCCCBr)cn23)n(C)c1=O .
0 (no)

Which outcome was entered for the compound COC1/C(=C\C(C)=O)c2ccccc2N1C(C)=O (stereo unspecified) in this test?
0 (no)

Outcome logged for CC(=O)OCC1OC(SC2=N/C(=C\c3cc4c(=O)c5ccccc5sc4s3)C(=O)N2c2ccccc2)C(OC(C)=O)C(OC(C)=O)C1OC(C)=O (stereo unspecified) in this assay:
0 (no)

Tell me the recorded outcome of this test for CC(C)(C)C(=O)O[C@H]1C=C[C@@H](O)[C@@H]2[C@H]1[C@@H]1C=C[C@H]2C1 .
0 (no)

Which result was noted for this compound in the test: COC(=O)[C@@]12C(=O)CCC(=O)C1C1C(=CC2C)O[C@@H]2OC3(CCCCC3)O[C@H]12 (stereo partly specified)
0 (no)

Dear all, I need the recorded test outcome for C[N+](C)(CCO)CCN1c2ccccc2Sc2ccccc21 , thank you.
0 (no)

Short answer needed: outcome of this test for CC(=O)c1sc(-c2nc(C)c(C(=O)/C=C\c3ccc(/C=C\C(=O)c4sc(-c5nc(C)c(C(C)=O)s5)nc4C)cc3)s2)nc1C ?
0 (no)
